test system: PRKACA-PRKAR2A interaction (SmBiT-PRKACA / LgBiT-PRKAR2A), protein kinase A; design: NanoLuc complementation counter-screen in cell extract, PRKACA with PRKAR2A, loss of luminescence, detects NanoLuc interference; details: counter-screen for NanoLuc interference; 0.5 h, 20 µM; inhibitor
Measured Quantity: Inh (PKA) (%)
The reply should be a number in %, with the unit left off.

> print(dat)
                                   compound  measured.quantity  observed.measurement
1  Nc1nc(=O)c2c([nH]1)NCC(CNc1ccc(C(=O)N[C@@H](CCC(=O)O)C(=O)O)cc1)N2C=O (stereo partly drawn)          Inh (PKA)                 1.727
2  COc1nccc(-c2c(-c3ccc(F)cc3)ncn2[C@H]2CC[C@H](O)CC2)n1          Inh (PKA)                 17.29

--- query ---
Lookup result for `Cc1cc(C)c(Nc2ccnc(Nc3ccc(C#N)cc3)n2)c(C)c1` ; measured Inh (PKA): 39.35

---

system: PRKACA-PRKAR2A interaction (SmBiT-PRKACA / LgBiT-PRKAR2A), protein kinase A; parameters: NanoLuc complementation counter-screen in cell extract, PRKACA with PRKAR2A, loss of luminescence, detects NanoLuc interference; conditions: counter-screen for NanoLuc interference; 0.5 h, 20 µM; inhibitor
Counter-ions that a name gives are not always drawn.
Please mark 1 if the recorded Inh (PKA) is equal to or greater than 3%, and -1 if it falls below.

# count of solved cases: 4
Compound	Discrete Label
Cn1cc(-c2ccc3ncc(Cc4ccc5ncccc5c4)n3n2)cn1	1
COc1ccccc1N1CCN(CCN(C(=O)C2CCCCC2)c2ccccn2)CC1 [UM0134420:02, WAY-100635 maleate salt]	-1
CCOc1ccc(Oc2ccc(OCc3cc(F)ccc3F)cc2)c(N)c1	1
CCOC(=O)c1ccc(OC(=O)CCCCCNC(=N)N)cc1 [UM0119043:03, Gabexate mesylate]	-1

Asked: Textbook exercise: given the entry `CN/C(=N\CCSCc1nc[nH]c1C)NC#N` , state whether its Inh (PKA) is greater than or equal to 3%.
Given back: -1

Asked: Assess whether reported Inh (PKA) for `CCn1c(C(=O)N(C2CC2)C2CC2)cc2c3c(ncn3C)c(Nc3cc(C)n(C)n3)nc21` sits at 3% or higher.
Given back: 1

Asked: Answer whether Inh (PKA) of Nc1nc(Nc2ccc3c(c2)CCC(N2CCCC2)CC3)nn1-c1cc2c(nn1)-c1ccccc1CCC2 (stereo not shown) is greater than or equal to 3%.
Given back: 1

Asked: Does Inh (PKA) meet or surpass 3% for `CCN1/C(=C/C(C)=O)Sc2ccc(OC)cc21` ?
Given back: -1

Asked: Please tell me: is the compound `CN(C)c1cccc(-c2c3c(=O)n(-c4ccccc4Cl)[nH]c3cc(=O)n2C)c1` at or over 3% in terms of Inh (PKA)?
Given back: 1

Asked: Test whether the compound `CCOC(=O)c1ccc(NC2CCCCC2)c(N)c1` records Inh (PKA) of 3% or higher.
Given back: 1

---

tested on: PRKACA-PRKAR2A interaction (SmBiT-PRKACA / LgBiT-PRKAR2A), protein kinase A; parameters: NanoLuc complementation counter-screen in cell extract, PRKACA with PRKAR2A, loss of luminescence, detects NanoLuc interference; settings: counter-screen for NanoLuc interference; 0.5 h, 20 µM; inhibitor
Measured Quantity: Inh (PKA) (%)
Note: unit % is implicit; provide only the numeric part.

Entry `C[C@@H]1COCCN1c1cc(C2(S(C)(=O)=O)CC2)nc(-c2cccc3[nH]ccc23)n1` , Inh (PKA) reported as 9.96

---

Recorded Inh (PKA) values for a group of compounds are listed next.
system: PRKACA-PRKAR2A interaction (SmBiT-PRKACA / LgBiT-PRKAR2A), protein kinase A; parameters: NanoLuc complementation counter-screen in cell extract, PRKACA with PRKAR2A, loss of luminescence, detects NanoLuc interference; conditions: counter-screen for NanoLuc interference; 0.5 h, 20 µM; inhibitor
Report as a plain number; the unit % is understood.

> print(dat)
                                   compound                                       tgt  measured.quantity  observed.measurement
1  C=CC(=O)Nc1cccc(Nc2nc(Nc3ccc(N4CCN(C(C)=O)CC4)cc3OC)ncc2C(F)(F)F)c1  PRKACA-PRKAR2A interaction (SmBiT-PRKACA / LgBiT-PRKAR2A), protein kinase A          Inh (PKA)                  17.5
2  Cn1cc(-c2ccncc2)c(-c2ccc(OCc3ccc4ccccc4n3)cc2)n1  PRKACA-PRKAR2A interaction (SmBiT-PRKACA / LgBiT-PRKAR2A), protein kinase A          Inh (PKA)                 39.54
3  O=C1C[C@@H](c2ccc(O)cc2)Oc2cc(O)cc(O)c21  PRKACA-PRKAR2A interaction (SmBiT-PRKACA / LgBiT-PRKAR2A), protein kinase A          Inh (PKA)                 6.247
4                      O=Nc1ccc(O)c2ncccc12  PRKACA-PRKAR2A interaction (SmBiT-PRKACA / LgBiT-PRKAR2A), protein kinase A          Inh (PKA)                 10.59

Now for the compound whose Inh (PKA) we want.
Inh (PKA) for CN1C(=O)C(Cc2c[nH]c3ccccc23)NC1=S (centres unmarked) is 5.445

---

# maps each entry to its Inh (PKA)
tested on: PRKACA-PRKAR2A interaction (SmBiT-PRKACA / LgBiT-PRKAR2A), protein kinase A; set-up: NanoLuc complementation counter-screen in cell extract, PRKACA with PRKAR2A, loss of luminescence, detects NanoLuc interference; conditions: counter-screen for NanoLuc interference, 0.5 h, 20 µM, inhibitor, Inh (PKA)
Structures can show the parent of a compound that is named as a salt.
// units = %; emit number, no label

Illustrative cases are given below, each with its answer.
> print(dat)
                                   compound  readout.unit  observed.measurement
1  CCC(CC)[C@H](NC(C)=O)[C@@H]1[C@H](O)[C@@H](C(=O)O)C[C@H]1NC(=N)N [UM0141600:01, Peramivir]             %                 2.459
2  C#Cc1cccc(Nc2ncnc3cc(OCCOC)c(OCCOC)cc23)c1 [UM0130975:02, Erlotinib Hydrochloride]             %                 10.54
3  Clc1ccc(Nc2nnc(Cc3ccncc3)c3ccccc23)cc1 [UM0127963:02, Vatalanib (PTK787) 2HCl]             %                 26.41
4  N#CC[C@H](C1CCCC1)n1cc(-c2ncnc3[nH]ccc23)cn1 [UM0141622:01, Ruxolitinib phosphate]             %                 28.19

Query compound follows.
Tested on PRKACA-PRKAR2A interaction (SmBiT-PRKACA / LgBiT-PRKAR2A), protein kinase A: COc1cc2nccc(Oc3ccc(NC(=O)C4(C(=O)Nc5ccc(F)cc5)CC4)cc3)c2cc1OC [UM0142237:01, Cabozantinib malate (XL184)] . Observed Inh (PKA): 10.79

---

system: PRKACA-PRKAR2A interaction (SmBiT-PRKACA / LgBiT-PRKAR2A), protein kinase A; parameters: NanoLuc complementation counter-screen in cell extract, PRKACA with PRKAR2A, loss of luminescence, detects NanoLuc interference; details: counter-screen for NanoLuc interference; 0.5 h, 20 µM; inhibitor
Measured Quantity: Inh (PKA) (%)
Respond numerically; units are % and should not be typed.

> print(dat)
                                   compound  measured.quantity  readout.unit  observed.measurement
1  Nc1nc(N)c2nc(-c3cccc(O)c3)c(-c3cccc(O)c3)nc2n1          Inh (PKA)             %                 37.25

# next compound below
Please fill in: Inh (PKA) reported for `O=C(O)c1cc(/N=N/c2ccc(S(=O)(=O)Nc3ccccn3)cc2)ccc1O` = 56.84

---

Reported values of Inhibition percent for individual entries
Molecular target: MeCP2-TBL1 interaction (MeCP2-SmBiT / TBL1-LgBiT) (Mus musculus)
Construct: expressed in transfected cells; crude lysate used as a cell-free assay
Sequence (Q9QXE7 166-527): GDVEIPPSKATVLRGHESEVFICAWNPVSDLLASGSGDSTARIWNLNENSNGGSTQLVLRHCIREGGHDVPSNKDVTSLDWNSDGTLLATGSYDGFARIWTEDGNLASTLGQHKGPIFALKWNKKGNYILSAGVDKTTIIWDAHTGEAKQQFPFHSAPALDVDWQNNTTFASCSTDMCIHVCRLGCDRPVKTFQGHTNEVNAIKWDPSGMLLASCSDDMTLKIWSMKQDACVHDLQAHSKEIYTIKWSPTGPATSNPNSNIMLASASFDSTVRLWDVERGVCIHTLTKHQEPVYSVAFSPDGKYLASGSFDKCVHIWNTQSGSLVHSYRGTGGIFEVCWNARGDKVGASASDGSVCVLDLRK
Test: MeCP2-TBL1 NanoLuc luciferase complementation assay (cell-free, extracts of transfected HEK293 cells);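 note: each compound tested at 20 µM final concentration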
Type: binding, human
Conditions: primary screen of the Asinex library, sheet "Sargen output Asinex library", one well per compound
Source text: To facilitate the discovery of inhibitors of the interaction between MeCP2 and TBL1/TBLR1, we set out to devise a simple and scalable biochemical assay for measuring the interaction between these two proteins. We initially explored the possibility of screening compound libraries using a previously established fluorescence polarization assay that depends on purified recombinant TBL1/TBLR1[26]. […]
# value in %; strip the unit string

Here's what some known entries look like.
> print(dat)
                                   molecule   measured.quantity  observed.measurement
1  Cc1cc(CC2CCN(C(=O)C3(C)CCN(C(=O)Cc4cccc(F)c4)CC3)CC2)ccn1  Inhibition percent                  4.29
2  COc1ccc(S[C@@H]2CCO[C@@H](CCNC(=O)c3cc(OC)nc(OC)n3)C2)cc1  Inhibition percent                 -1.50
3  CC1(C(=O)N2CCOCC(Cc3ccc4ccncc4c3)C2)CCN(CCc2ccccc2)CC1 (stereo not drawn)  Inhibition percent                 -4.04

# molecule COc1ccccc1Cc1ccc(C(=O)N2CCCC3(CC2)CN(c2ccccc2)C(=O)O3)cn1 (stereo not drawn) ; its Inhibition percent = -0.57

Note to self: Inhibition percent recorded for O=C1OC2(CCCN(C(=O)c3ccc(-n4cccn4)nc3)CC2)CN1Cc1ccccc1 (stereo not drawn) was -2.98

Query `Cc1cc(Oc2ccc(F)cc2)nc(C2CCN(C(=O)c3cncc(-c4cncnc4)c3)CC2)n1` yields Inhibition percent of -2.06

The recorded Inhibition percent for entry O=C(c1ccccc1OCCN1CCOCC1)N1CCCC(Cc2ccnc3ccccc23)CC1 (stereo not drawn) equals -1.00

# Inhibition percent (molecule: `CC(=O)N[C@@]12CN(C(C)=O)CC[C@@H]1[C@@H](c1ccccc1)N(CC(=O)Nc1cccc(C)c1C)C2` ) is 5.23

Record Cn1ccc(C(=O)Nc2ccccc2C(=O)N2CCC3(CN(Cc4ccccc4)C(=O)O3)C2)n1 (stereo not drawn) , field Inhibition percent: -4.02

Sure, the documented Inhibition percent for O=C(c1ccccc1CN1CCCC1)N1CCCC(c2cccc(Cc3ccccc3F)n2)C1 (stereo not drawn) is 1.91

Documented Inhibition percent of `CC(C)c1nccn1CCC(=O)N1[C@H](Cc2ccccc2)C[C@]2(C)NC(=O)CCC[C@H]12` : 1.15

Inhibition percent reported for this molecule `CC(=O)N1[C@@H](Cc2ccccc2)[C@@H]2C[C@@]3(C)[C@H](CCCC[C@@H]13)N2Cc1ccc(OCC(=O)O)cc1` : 3.50

// field: Inhibition percent; key: CCCC(=O)N1Cc2ccccc2OC2(CCC(N(C)CC3CCCCC3)CC2)C1 (stereo not drawn) ; value = -1.18

Per the records, this molecule ( COc1cccc(Cc2cccc(C3CCCN3C(=O)Cc3ccncc3)n2)c1 (stereo not drawn) ) has Inhibition percent equal to -2.15

Entry under test: `O=C1CNC(=O)C2(C/C=C/C[C@H]3COCC[C@@H]3N1)CCN(C(=O)COc1ccccc1)CC2` . Its Inhibition percent was -3.47

// recorded Inhibition percent for `CC(C)(C)OC(=O)N1CC[C@H]2O[C@H]3c4ccc(O)cc4OC(C)(C)[C@@H]3C[C@@H]2C1` : 2.11

Lab book: Inhibition percent of `CC(=O)Nc1cccc([C@@H]2CN(Cc3ccc4c(c3)n(C)c(=O)n4C)C[C@]23CCCCC(=O)N3)c1` noted as -1.53

Briefly, Inhibition percent measured for COc1cccc(-c2cc(C(=O)N3CCCCC3c3ncc(Cc4ccccc4)o3)on2)c1 (stereo not drawn) : 7.15

The molecule listed as O=C(c1ccccc1CN1CCOCC1)N1CCCC(Cc2cnc3ccccc3c2)CC1 (stereo not drawn) shows Inhibition percent equal to -1.09

Form field Inhibition percent, entry COc1cccc(Cc2cnc(C3CCCCN3C(=O)COc3ncnc4ccccc34)o2)c1 (stereo not drawn) : 0.39

The molecule NC(=O)c1cc(CC2CCCN(C(=O)c3ccnc(Cc4ccccc4)c3)CC2)ncn1 (stereo not drawn) showed Inhibition percent equal to -0.17
